- experiment.description: Wetting properties: contact angle on solid substrates, optical contact angle goniometer
- Assay type: physicochemical
- condition.label: substrate Nylon, 10x CMC
property.name: CA of Surfactant (contact angle)
Could you write the number and then its unit?

Please review the following examples before continuing.
>>> df
                               smiles_entry  value_reported
0     CCCCCCCCCCCCOC(=O)CCCCC[N+](C)(C)[O-]          21.7 °
1  CCCCCCCCCCCCOC(=O)CCCCC[N+](C)(C)CCCCS(=O)(=O)[O-]          25.7 °
2               CCCCCCCCCCCCOC(=O)CCCCCN.Cl          18.2 °
3   CCCCCCCCCCCCOC(=O)CCCCC[N+](C)(C)C.[I-]          31.5 °

Now consider the entry below.
Just so you know, measured CA of Surfactant (contact angle) for `CCCCCCCCCCCCOC(=O)CCCCCN(C)C.Cl` came out at 15 °

These data points were gathered from patent US20210290765A1.
